biological target: Human OX2 receptor (Homo sapiens)
pKd: −log10 of the molar value.

molecule	target-system	pKd
COc1cc(F)c(CN2C(=O)N(c3cnc(OC)c(OC)c3)S(=O)(=O)c3ccccc32)c(F)c1 [reference compound]	Human OX2 receptor (Homo sapiens)	9.12

###

biological target: Human OX1 receptor (Homo sapiens, UniProt O43613); experiment: IPone accumulation assay, CHO cells expressing human OX1 receptor; format: cell-based; details: antagonism of orexin A (EC80) induced inositol phosphate turnover, read-out: fpKb average OX1 (converted)
Sequence (O43613 whole entry): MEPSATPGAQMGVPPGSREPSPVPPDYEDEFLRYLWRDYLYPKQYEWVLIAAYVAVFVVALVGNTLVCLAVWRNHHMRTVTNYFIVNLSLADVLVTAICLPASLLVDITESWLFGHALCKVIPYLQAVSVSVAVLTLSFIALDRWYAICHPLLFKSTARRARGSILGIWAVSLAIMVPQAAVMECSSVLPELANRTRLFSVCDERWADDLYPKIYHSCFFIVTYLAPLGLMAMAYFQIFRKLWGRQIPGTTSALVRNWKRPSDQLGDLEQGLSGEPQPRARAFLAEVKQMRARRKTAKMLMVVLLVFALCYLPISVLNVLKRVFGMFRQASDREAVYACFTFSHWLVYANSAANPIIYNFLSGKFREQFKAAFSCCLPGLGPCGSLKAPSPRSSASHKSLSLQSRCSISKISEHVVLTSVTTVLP
A collection of compounds and their measured Kb
quantity-name: Kb (nM)

smiles-entry	target-system	quantity-name	measured-result
O=C(N[C@H]1CCC[C@@H]1COc1ccc(Cl)cc1)c1ncccc1-c1ncccn1	Human OX1 receptor (Homo sapiens, UniProt O43613)	Kb	316
O=C(N[C@H]1CCC[C@@H]1COc1ccc(F)cc1)c1c(F)cccc1-n1nccn1	Human OX1 receptor (Homo sapiens, UniProt O43613)	Kb	63.1
Cc1ccc(-n2nccn2)c(C(=O)N[C@H]2CCC[C@@H]2COc2ccc(Cl)cc2)n1	Human OX1 receptor (Homo sapiens, UniProt O43613)	Kb	39.8
COc1nccc(-c2ncccn2)c1C(=O)N[C@H]1CCC[C@@H]1COc1ccc(F)cc1	Human OX1 receptor (Homo sapiens, UniProt O43613)	Kb	25.1
O=C(N[C@H]1CCC[C@@H]1COc1ccc(F)cc1)c1ccccc1-n1nccn1	Human OX1 receptor (Homo sapiens, UniProt O43613)	Kb	126
O=C(N[C@H]1CCC[C@@H]1COc1ccc(F)c(F)c1)c1ncccc1-c1ncccn1	Human OX1 receptor (Homo sapiens, UniProt O43613)	Kb	100
O=C(N[C@H]1CCC[C@@H]1COc1ccc(F)cc1F)c1ncccc1-c1ncccn1	Human OX1 receptor (Homo sapiens, UniProt O43613)	Kb	251
COc1cccc(-n2nccn2)c1C(=O)N[C@H]1CCC[C@@H]1COc1ccc(F)cc1	Human OX1 receptor (Homo sapiens, UniProt O43613)	Kb	1.58

###

target: Human OX1 receptor (Homo sapiens, UniProt O43613)
pKi: −log10 of the molar value.
Class Fulfilled: pKi at least 8. Class Not fulfilled: pKi below 8.

smiles-entry	qualitative-label
Cc1ccc(-n2nccn2)c(C(=O)N[C@H]2CCC[C@@H]2COc2ccc(F)cc2)n1	Fulfilled
COc1cccc(-c2ncccn2)c1C(=O)N[C@H]1CCC[C@@H]1COc1ccc(F)cc1	Fulfilled
O=C(N[C@H]1CCC[C@@H]1COc1ccc(F)c(F)c1)c1ncccc1-c1ncccn1	Not fulfilled
COc1cccc(-c2ccncn2)c1C(=O)N[C@H]1CCC[C@@H]1COc1ccc(F)cc1	Fulfilled
COc1cccc(-n2nccn2)c1C(=O)N[C@H]1CCC[C@@H]1COc1ccc(F)cc1	Fulfilled
Cc1ccc(-n2nccn2)c(C(=O)N[C@H]2CCC[C@@H]2COc2ccc(Cl)cc2)n1	Fulfilled
O=C(N[C@H]1CCC[C@@H]1COc1ccc(F)cc1)c1c(F)cccc1-n1nccn1	Fulfilled
[2H]C([2H])([2H])Oc1cccc(-n2nccn2)c1C(=O)N[C@H]1CCC[C@@H]1COc1ccc(F)cc1	Fulfilled
COc1cccc(-c2ncccn2)c1C(=O)N[C@H]1CCC[C@@H]1COc1ccc(F)cn1	Not fulfilled

###

target: Human OX1 receptor (Homo sapiens)
quantity-name: Kd (nM)

molecule	target-system	measured-result
COc1cc(F)c(CN2C(=O)N(c3cnc(OC)c(OC)c3)S(=O)(=O)c3ccccc32)c(F)c1 [reference compound]	Human OX1 receptor (Homo sapiens)	1.5

###

molecular target: Human OX1 receptor (Homo sapiens); experiment: IPone accumulation assay, CHO cells expressing human OX1 receptor; type: cell-based; details: antagonism of orexin A (EC80) induced inositol phosphate turnover, read-out: fpKb average OX1 (converted)
Classify on Kb using bin 1 (below 20 nM), bin 2 (20 nM to below 50 nM), bin 3 (50 nM or more)

smiles-entry	target-system	qualitative-label
Cc1ccc(-c2ncccn2)c(C(=O)N[C@H]2CCC[C@@H]2COc2ccc(F)cc2)c1	Human OX1 receptor (Homo sapiens)	bin 3
[2H]C([2H])([2H])Oc1cccc(-n2nccn2)c1C(=O)N[C@H]1CCC[C@@H]1COc1ccc(F)cn1	Human OX1 receptor (Homo sapiens)	bin 1
COc1cccc(-n2nccn2)c1C(=O)N[C@H]1CCC[C@@H]1COc1ccc(Cl)cc1	Human OX1 receptor (Homo sapiens)	bin 1
Cc1ccc(-c2ncccn2)c(C(=O)N[C@H]2CCC[C@@H]2COc2ccc(F)cc2)n1	Human OX1 receptor (Homo sapiens)	bin 1
COc1nccc(-n2nccn2)c1C(=O)N[C@H]1CCC[C@@H]1COc1ccc(F)cc1	Human OX1 receptor (Homo sapiens)	bin 2
COc1cccc(-n2nccn2)c1C(=O)N[C@H]1CCC[C@@H]1COc1ccc(F)cn1	Human OX1 receptor (Homo sapiens)	bin 1
COc1ccc(-n2nccn2)c(C(=O)N[C@H]2CCC[C@@H]2COc2ccc(F)cc2)n1	Human OX1 receptor (Homo sapiens)	bin 3
COc1cccc(-c2ncccn2)c1C(=O)N[C@H]1CCC[C@@H]1COc1ccc(F)cc1	Human OX1 receptor (Homo sapiens)	bin 1
O=C(N[C@H]1CCC[C@@H]1COc1ccc(F)cc1)c1c(OC(F)F)cccc1-n1nccn1	Human OX1 receptor (Homo sapiens)	bin 3
COc1cccc(-c2ccncn2)c1C(=O)N[C@H]1CCC[C@@H]1COc1ccc(F)cc1	Human OX1 receptor (Homo sapiens)	bin 1
Cc1ccc(-n2nccn2)c(C(=O)N[C@H]2CCC[C@@H]2COc2ccc(F)cc2)n1	Human OX1 receptor (Homo sapiens)	bin 2
O=C(N[C@H]1CCC[C@@H]1COc1ccc(F)cc1)c1c(OC(F)F)cccc1-c1ncccn1	Human OX1 receptor (Homo sapiens)	bin 3
COCc1ccc(-n2nccn2)c(C(=O)N[C@H]2CCC[C@@H]2COc2ccc(Cl)cc2)n1	Human OX1 receptor (Homo sapiens)	bin 3

###

molecular target: Human OX2 receptor (Homo sapiens); assay: IPone accumulation assay, CHO cells expressing human OX2 receptor; assay type: cell-based; details: antagonism of orexin A (EC80) induced inositol phosphate turnover, read-out: fpKb average OX2

molecule	Kb
COc1ccc(-n2nccn2)c(C(=O)N[C@H]2CCC[C@@H]2COc2ccc(Cl)cc2)n1 [Example 21]	> 631 nM
O=C(N[C@H]1CCC[C@@H]1COc1ccc(Cl)cc1)c1ncccc1-c1ncccn1 [Example 27]	> 2510 nM
[2H]C([2H])([2H])Oc1cccc(-n2nccn2)c1C(=O)N[C@H]1CCC[C@@H]1COc1ccc(F)cc1 [Example 14]	> 501 nM
[2H]C([2H])(Oc1ccc(F)cc1)[C@H]1CCC[C@@H]1NC(=O)c1c(OC)cccc1-n1nccn1 [Example 7]	> 794 nM
O=C(N[C@H]1CCC[C@@H]1COc1ccc(F)c(F)c1)c1ncccc1-c1ncccn1 [Example 28]	> 2510 nM
COc1ccc(F)c(-n2nccn2)c1C(=O)N[C@H]1CCC[C@@H]1COc1ccc(F)cc1 [Example 16]	> 631 nM
COc1cccc(-c2cnccn2)c1C(=O)N[C@H]1CCC[C@@H]1COc1ccc(F)cc1 [Example 11]	> 631 nM
COc1cccc(-n2nccn2)c1C(=O)N[C@H]1CCC[C@@H]1COc1ccc(Cl)cc1 [Example 6]	> 794 nM
Cc1ccc(-n2nccn2)c(C(=O)N[C@H]2CCC[C@@H]2COc2ccc(Cl)cc2)n1 [Example 23]	> 1260 nM
Cc1ccc(-n2nccn2)c(C(=O)N[C@H]2CCC[C@@H]2COc2ccc(F)cc2)n1 [Example 22]	> 1260 nM
Cc1ccc(-c2ncccn2)c(C(=O)N[C@H]2CCC[C@@H]2COc2ccc(F)cc2)c1 [Example 2]	> 1260 nM
O=C(N[C@H]1CCC[C@@H]1COc1ccc(F)cc1)c1c(F)cccc1-c1ncccn1 [Example 10]	> 631 nM
COCc1ccc(-n2nccn2)c(C(=O)N[C@H]2CCC[C@@H]2COc2ccc(Cl)cc2)n1 [Example 19]	> 1260 nM

###

Target: Human OX2 receptor (Homo sapiens)
Sequence (O43614 1-444): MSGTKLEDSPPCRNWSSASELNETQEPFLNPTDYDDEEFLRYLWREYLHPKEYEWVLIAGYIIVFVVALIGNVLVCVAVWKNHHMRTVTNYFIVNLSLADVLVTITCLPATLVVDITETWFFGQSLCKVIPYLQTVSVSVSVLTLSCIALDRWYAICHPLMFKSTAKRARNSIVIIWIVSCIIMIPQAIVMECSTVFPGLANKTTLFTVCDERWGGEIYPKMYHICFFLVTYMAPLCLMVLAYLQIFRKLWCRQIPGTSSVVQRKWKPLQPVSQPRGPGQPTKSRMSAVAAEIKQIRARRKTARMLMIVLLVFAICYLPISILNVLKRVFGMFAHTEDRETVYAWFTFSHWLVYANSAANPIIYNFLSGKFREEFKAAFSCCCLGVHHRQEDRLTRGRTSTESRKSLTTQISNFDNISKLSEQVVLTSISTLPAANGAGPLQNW

compound	target-system	Ki
O=C(N[C@H]1CCC[C@@H]1COc1ccc(F)cc1)c1c(F)cccc1-n1nccn1 [Example 4]	Human OX2 receptor (Homo sapiens)	> 3.16 µM
Cc1ccc(-n2nccn2)c(C(=O)N[C@H]2CCC[C@@H]2COc2ccc(F)cc2)n1 [Example 22]	Human OX2 receptor (Homo sapiens)	> 3.16 µM
Cc1ccc(-c2ncccn2)c(C(=O)N[C@H]2CCC[C@@H]2COc2ccc(F)cc2)c1 [Example 2]	Human OX2 receptor (Homo sapiens)	> 5.01 µM
O=C(N[C@H]1CCC[C@@H]1COc1ccc(F)cc1)c1ncccc1-c1ncccn1 [Example 25]	Human OX2 receptor (Homo sapiens)	> 3.16 µM
O=C(N[C@H]1CCC[C@@H]1COc1ccc(F)cc1F)c1ncccc1-c1ncccn1 [Example 26]	Human OX2 receptor (Homo sapiens)	> 3.16 µM
Cc1ccc(-n2nccn2)c(C(=O)N[C@H]2CCC[C@@H]2COc2ccc(Cl)cc2)n1 [Example 23]	Human OX2 receptor (Homo sapiens)	> 3.98 µM
COc1ccc(-n2nccn2)c(C(=O)N[C@H]2CCC[C@@H]2COc2ccc(F)cc2)n1 [Example 20]	Human OX2 receptor (Homo sapiens)	> 5.01 µM
COc1nccc(-c2ncccn2)c1C(=O)N[C@H]1CCC[C@@H]1COc1ccc(F)cc1 [Example 30]	Human OX2 receptor (Homo sapiens)	> 1.26 µM
COc1cccc(-n2nccn2)c1C(=O)N[C@H]1CCC[C@@H]1COc1ccc(F)cc1 [Example 5]	Human OX2 receptor (Homo sapiens)	0.2 µM
O=C(N[C@H]1CCC[C@@H]1COc1ccc(F)cc1)c1ccccc1-n1nccn1 [Example 1]	Human OX2 receptor (Homo sapiens)	> 3.16 µM
[2H]C([2H])(Oc1ccc(F)cc1)[C@H]1CCC[C@@H]1NC(=O)c1c(OC)cccc1-n1nccn1 [Example 7]	Human OX2 receptor (Homo sapiens)	0.158 µM
